Assay: Metabolic stability in human hepatic microsome
Format: in vitro ADME
Details: microsomes, pH 7.4; human hepatic microsome, NADPH(+); read-out: CL NADPH(+)
Starred links: 1 amine or outer side, 2 acyl side, 3 side chain; linkers in the order of their positions; H or OH if unused. Positions of bridges follow the written chain, without caps; N, C: chain ends. Non-standard residues stand in square brackets, D forms with d. Residues, ends and D or L forms follow the SMILES beside them. *: point of attachment. Met(O2) = CS(=O)(=O)CC[C@H](N)C(=O)O; NMeF = CN[C@@H](Cc1ccccc1)C(=O)O; NMeβAla = CN(CCC(=O)[*:2])[*:1]; NMeL = CN[C@@H](CC(C)C)C(=O)O; NMeA = CN[C@@H](C)C(=O)O; Piperidide = C1CCN(*)CC1; β3hA = C[C@H](N)CC(=O)O; Sar = CNCC(=O)O
MEASURED ATTRIBUTE: microsomal CLint at 1 uM (µL/min/mg)

- CC(C)C[C@H]1C(=O)N(C)[C@@H](Cc2ccccc2)C(=O)N(C)[C@@H](CC(C)C)C(=O)N[C@@H]([C@@H](C)O)C(=O)N[C@H](C(=O)N2CCCCC2)CC(=O)N[C@H](C(C)C)C(=O)N(C)[C@@H](C)C(=O)N(C)[C@@H](CC(C)C)C(=O)N[C@@H](CCS(C)(=O)=O)C(=O)N(C)[C@@H](Cc2ccccc2)C(=O)N[C@@H](Cc2ccccc2)C(=O)N1C [DP-621] ([dV][NMeA][NMeL][Met(O2)][NMeF]F[NMeL][NMeF][NMeL]TD-Piperidide; lactam N-11): 11
- CC(C)C[C@H]1C(=O)N(C)[C@@H](C)C(=O)N[C@@H]([C@@H](C)O)C(=O)N(C)[C@@H](C)C(=O)N(C)[C@@H](Cc2ccccc2)C(=O)N[C@@H](Cc2ccccc2)C(=O)N[C@H](C(=O)N(C)[C@@H](Cc2ccccc2)C(=O)N[C@@H](C)C(=O)N2CCCCC2)CC(=O)N(C)CCC(=O)N(C)[C@@H](C)C(=O)N[C@@H](C)C(=O)N(C)CC(=O)N1C [DP-361] ([NMeβAla][NMeA]A[Sar][NMeL][NMeA]T[NMeA][NMeF]FD[NMeF]A-Piperidide; lactam N-11): 9
- CC[C@H](C)[C@@H]1NC(=O)[C@H](CC(C)C)N(C)C(=O)[C@H](C)NC(=O)CN(C)C(=O)[C@H](CC(C)C)NC(=O)[C@H]([C@@H](C)O)NC(=O)[C@H](CC(C)C)N(C)C(=O)CCN(C)C(=O)C[C@H](C)NC(=O)[C@H](CC(C)C)N(C)C(=O)[C@H](CC(C)C)N(C)C1=O [DP-806] (cyclo(A[NMeL]I[NMeL][NMeL][β3hA][NMeβAla][NMeL]TL[Sar])): 88
- CC(C)C[C@H]1C(=O)N(C)CC(=O)N(C)[C@@H](C)C(=O)N[C@@H]([C@@H](C)O)C(=O)N[C@H](C(=O)N2CCCCC2)CC(=O)N[C@H](C(C)C)C(=O)N(C)[C@@H](C)C(=O)N(C)[C@@H](CC(C)C)C(=O)N[C@@H](Cc2c[nH]c3ccccc23)C(=O)N(C)[C@@H](Cc2ccccc2)C(=O)N[C@@H](Cc2ccccc2)C(=O)N1C [DP-623] ([dV][NMeA][NMeL]W[NMeF]F[NMeL][Sar][NMeA]TD-Piperidide; lactam N-11): 16
- CC[C@H](C)[C@@H]1NC(=O)[C@H](CC(C)C)N(C)C(=O)[C@H](CC(C)C)N(C)C(=O)[C@@H](C(C)C)NC(=O)C[C@H](C)NC(=O)[C@H](CC(C)C)N(C)C(=O)[C@H](C)N(C)C(=O)[C@H]([C@@H](C)O)NC(=O)[C@H](CC(C)C)N(C)C(=O)[C@H](C)N(C)C1=O [DP-813] (cyclo(I[NMeA][NMeL]T[NMeA][NMeL][β3hA][dV][NMeL][NMeL])): 195
